- assayedSystem: COTRANSPORT Na-K (Homo sapiens)
- Construct: systèmes de transport du sodium et du potassium des érythrocytes humains; endogenous in cells; host or cells: human erythrocytes
- Sequence (P55011 1-1212): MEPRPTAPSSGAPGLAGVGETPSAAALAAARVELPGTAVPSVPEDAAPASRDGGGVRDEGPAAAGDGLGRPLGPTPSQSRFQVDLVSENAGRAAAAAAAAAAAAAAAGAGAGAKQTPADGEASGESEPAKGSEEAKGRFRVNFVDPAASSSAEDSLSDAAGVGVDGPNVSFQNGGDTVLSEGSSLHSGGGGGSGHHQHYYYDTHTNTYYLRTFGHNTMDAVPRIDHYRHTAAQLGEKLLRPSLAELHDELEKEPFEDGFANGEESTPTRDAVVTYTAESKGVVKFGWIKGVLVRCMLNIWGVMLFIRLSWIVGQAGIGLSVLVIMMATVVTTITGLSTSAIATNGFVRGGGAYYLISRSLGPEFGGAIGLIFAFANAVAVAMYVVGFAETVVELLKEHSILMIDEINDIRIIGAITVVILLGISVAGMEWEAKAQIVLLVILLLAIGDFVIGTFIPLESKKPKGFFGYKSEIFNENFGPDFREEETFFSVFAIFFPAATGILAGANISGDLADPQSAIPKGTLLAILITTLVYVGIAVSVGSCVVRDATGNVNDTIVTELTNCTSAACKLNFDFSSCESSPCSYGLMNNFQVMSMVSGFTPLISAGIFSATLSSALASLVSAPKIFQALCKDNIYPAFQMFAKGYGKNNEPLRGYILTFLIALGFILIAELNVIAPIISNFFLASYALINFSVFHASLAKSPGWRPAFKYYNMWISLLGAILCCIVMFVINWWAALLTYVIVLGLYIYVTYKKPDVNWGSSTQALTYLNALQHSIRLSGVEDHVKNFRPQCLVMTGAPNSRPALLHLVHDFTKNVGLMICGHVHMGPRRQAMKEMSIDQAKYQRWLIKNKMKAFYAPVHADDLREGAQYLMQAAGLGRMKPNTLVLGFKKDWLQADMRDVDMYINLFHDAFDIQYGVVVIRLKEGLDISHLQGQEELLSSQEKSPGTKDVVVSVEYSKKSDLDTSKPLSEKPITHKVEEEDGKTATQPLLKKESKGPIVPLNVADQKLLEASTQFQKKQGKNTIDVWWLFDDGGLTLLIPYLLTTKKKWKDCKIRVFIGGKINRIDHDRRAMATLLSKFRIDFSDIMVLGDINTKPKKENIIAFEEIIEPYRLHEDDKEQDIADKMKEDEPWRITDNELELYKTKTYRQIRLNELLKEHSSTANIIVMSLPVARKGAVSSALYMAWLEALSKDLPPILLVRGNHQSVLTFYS
- testMethodNotes: Na-K cotransport of human erythrocytes
- Type: cell-based, ERYTHROCYTES HUMAINS
measuredParameter: pIC50
Quick note: pIC50 means taking -log10 of the concentration in moles per liter.

Can you look up the measured pIC50 of CCCCNc1cc(C(=O)O)cc(S(N)(=O)=O)c1Oc1ccccc1 [BUMETANIDE, reference compound] for me? 6.18
